Counter-ions that a name gives are not always drawn.
β-secretase (BACE) (Homo sapiens, UniProt P56817) Ki data
Sequence (P56817 46-501): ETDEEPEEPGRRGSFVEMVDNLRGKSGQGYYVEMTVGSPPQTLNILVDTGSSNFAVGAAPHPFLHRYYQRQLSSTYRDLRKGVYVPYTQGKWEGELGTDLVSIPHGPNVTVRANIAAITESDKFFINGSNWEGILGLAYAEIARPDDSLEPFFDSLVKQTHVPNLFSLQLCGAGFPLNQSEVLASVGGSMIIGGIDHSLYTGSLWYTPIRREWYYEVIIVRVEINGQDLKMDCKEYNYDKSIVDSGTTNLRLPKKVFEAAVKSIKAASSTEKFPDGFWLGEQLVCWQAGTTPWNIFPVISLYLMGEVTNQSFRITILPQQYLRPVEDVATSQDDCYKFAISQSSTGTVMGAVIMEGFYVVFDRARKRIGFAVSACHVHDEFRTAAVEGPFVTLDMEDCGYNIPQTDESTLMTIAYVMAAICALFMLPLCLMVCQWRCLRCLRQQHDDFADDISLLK
QUANTITY_NAME: Ki (nM)

                                   compound                           target_of_assay  quantity_name  observed_measurement
0  NC1=Nc2cnc(Oc3ccccc3)cc2CN1[C@@H](CCC(=O)N(CCO)[C@H]1CC[C@@H](C(=O)O)CC1)C1CCCCC1 [Compound 37]  β-secretase (BACE) (Homo sapiens, UniProt P56817)             Ki                    12

[a] CC(C)[C@H](CCC(=O)N[C@@H](COCc1ccccc1)C(=O)O)N1Cc2cc(Oc3ccccc3)ncc2N=C1N [Compound 47]
[b] COC(=O)[C@H](COCc1ccccc1)N(C)C(=O)CC[C@@H](C(C)C)N1Cc2cc(Oc3ccccc3)ncc2N=C1N [Compound 51, trifluoroacetate salt]
Task: // compare: a vs b , metric Ki, want the smaller Respond using the label that marks the chosen record.
Output: b
(b: 14 nM, a: 72 nM)

[A] COC(=O)[C@H]1CC[C@@H](N(C)C(=O)CC[C@@H](C2CCOCC2)N2Cc3cc(Oc4ccccc4)ncc3N=C2N)CC1 [Compound 32]
[B] CC(C)OCCC(CCC(=O)N(C)C1CCCCC1)N1Cc2cc(Oc3ccccc3)ncc2N=C1N (stereo not shown) [Compound 24]
[C] CC(C)[C@H](CO)NC(=O)CC[C@@H](C(C)C)N1Cc2cc(Oc3ccccc3)ncc2N=C1N [Compound 29]
Task: Hey, quick one: sort these by Ki, largest value first please. Use the labels to give the requested order.
Output: B, C, A
(B: 234 nM, C: 31 nM, A: 20 nM)

----------
target: β-secretase (BACE) (Homo sapiens); construct: purchased Panvera; test: BACE FS1 Assay (% Inhibition and Ki); type: biochemical; settings: 1 μM test compound; FS1 substrate; read-out: % Inhibition (FS) @ 1 μM
Structures can show the parent of a compound that is named as a salt.
QUANTITY_NAME: inhibition at 1 µM (%)

// worked examples, inhibition at 1 µM included
In [3]: df
Out[3]:
                                   molecule  observed_measurement
0  COC(=O)[C@H](COCc1ccccc1)NC(=O)CC[C@@H](C(C)C)N1Cc2cc(Oc3ccccc3)ncc2N=C1N [Compound 45, hydrobromide salt]                    91
1  CC(C)OCCC(CCC(=O)N(C)C1CCCCC1)N1Cc2cc(Oc3ccccc3)ncc2N=C1N (centres unmarked)                    71
2  COC(=O)[C@H]1CC[C@@H](N(C)C(=O)CC[C@@H](C2CCOCC2)N2Cc3cc(Oc4ccccc4)ncc3N=C2N)CC1                   101
3  CN(C(=O)CCC(C1CCOCC1)N1Cc2cc(Oc3ccccc3)ncc2N=C1N)C1CCC(C(=O)O)CC1 (centres unmarked)                   124
4  CCOC(=O)C1CCC(N(CCO)C(=O)CCC(C(C)C)N2Cc3cc(Oc4ccccc4)ncc3N=C2N)CC1 (centres unmarked)                    66
5  COC(=O)[C@H](COCc1ccccc1)N(C)C(=O)CC[C@@H](C(C)C)N1Cc2cc(Oc3ccccc3)ncc2N=C1N [Compound 51, trifluoroacetate salt]                   118
6  CC(C)[C@H](CCC(=O)N(C)[C@H]1CC[C@@H](C(=O)O)CC1)N1Cc2cc(Oc3ccccc3)ncc2N=C1N                   107
7  COC(=O)[C@@H](CO)NC(=O)CC[C@@H](C(C)C)N1Cc2cc(Oc3ccccc3)ncc2N=C1N                   124
8  NC1=Nc2cnc(Oc3ccccc3)cc2CN1[C@@H](CCC(=O)N(CCO)C1CCCCC1)C1CCCCC1                   136
9  COc1ccccc1-c1cc2c(cn1)N=C(N)N([C@@H](CCC(=O)N(C)C1CCCCC1)C1CCCCC1)C2                   132

[A] CC(C)C(CCC(=O)N(C)C1CCC(C(=O)O)CC1)N1Cc2cc(Oc3ccccc3)ncc2N=C1N (centres unmarked)
[B] COCCC(CCC(=O)N(C)C1CCCCC1)N1Cc2cc(Oc3ccccc3)ncc2N=C1N (centres unmarked)
Task: Hi team, can someone confirm which has the larger inhibition at 1 µM: A or B ? Thanks. Respond using the label that marks the chosen record.
Output: A
(A: 129%, B: 86%)

----------
target: β-secretase (BACE) (Homo sapiens, UniProt P56817); construct: purchased Panvera; assay: BACE FS1 Assay (% Inhibition and Ki); assay type: biochemical; conditions: 1 μM test compound; FS1 substrate; read-out: % Inhibition (FS) @ 1 μM
QUANTITY_NAME: inhibition at 1 µM (%)

>>> print(df.to_string())
                                   compound       quantity_name  observed_measurement
0  CCC(CC)N(CCO)C(=O)CC[C@@H](C1CCCCC1)N1Cc2cc(Oc3ccccc3)ncc2N=C1N [Compound 50]  inhibition at 1 µM                   100
1  CC(C)[C@H](CCC(=O)N[C@H](COCc1ccccc1)C(=O)OCc1ccccc1)N1Cc2cc(Oc3ccccc3)ncc2N=C1N [Compound 48]  inhibition at 1 µM                   107

[I] CN(C(=O)CCC(C1CCCCC1)N1Cc2cc(Oc3ccccc3)ncc2N=C1N)C1CCC(C(=O)O)CC1 (stereo not shown) [Compound 18]
[II] CCOC(=O)C1CCC(N(C)C(=O)CCC(C2CCCCC2)N2Cc3cc(Oc4ccccc4)ncc3N=C2N)CC1 (stereo not shown) [Compound 17]
Task: Hi team, can someone confirm which has the larger inhibition at 1 µM: I or II ? Thanks. Respond using the label that marks the chosen record.
Output: I

----------
molecular target: β-secretase (BACE) (Homo sapiens, UniProt P56817); construct: purchased Panvera; experiment: BACE FS1 Assay (% Inhibition and Ki); format: biochemical; settings: 0.3 μM test compound; FS1 substrate; read-out: % Inhibition (FS) @ 0.3 μM
QUANTITY_NAME: inhibition at 0.3 µM (%)

// worked examples, inhibition at 0.3 µM included
                                   compound                           target_of_assay  observed_measurement
0  CC(C)[C@H](CCC(=O)N[C@H](CO)C(=O)O)N1Cc2cc(Oc3ccccc3)ncc2N=C1N [Compound 30]  β-secretase (BACE) (Homo sapiens, UniProt P56817)                    91
1  CC(C)C(CCC(=O)N(CCO)C1CCC(c2nnn[nH]2)CC1)N1Cc2cc(Oc3ccccc3)ncc2N=C1N (stereo not shown) [Compound 12]  β-secretase (BACE) (Homo sapiens, UniProt P56817)                    30
2  NC1=Nc2cnc(Oc3ccccc3)cc2CN1[C@@H](CCC(=O)N(CCO)[C@H]1CC[C@@H](C(=O)O)CC1)C1CCOCC1 [Compound 38]  β-secretase (BACE) (Homo sapiens, UniProt P56817)                   112
3  NC1=Nc2cnc(Oc3ccccc3)cc2CN1CCNC(=O)C1CCCCC1 [Compound 1]  β-secretase (BACE) (Homo sapiens, UniProt P56817)                    75
4  CCC(CC)N(CCO)C(=O)CC[C@@H](C1CCCCC1)N1Cc2cc(Oc3ccccc3)ncc2N=C1N [Compound 50]  β-secretase (BACE) (Homo sapiens, UniProt P56817)                    68

[P] COC(=O)[C@@H](CO)NC(=O)CC[C@@H](C(C)C)N1Cc2cc(Oc3ccccc3)ncc2N=C1N [Compound 28]
[Q] COC(=O)[C@H]1CC[C@@H](N(C)C(=O)CC[C@@H](C2CCOCC2)N2Cc3cc(Oc4ccccc4)ncc3N=C2N)CC1 [Compound 32]
Task: // compare: P vs Q , metric inhibition at 0.3 µM, want the smaller Respond using the label that marks the chosen record.
Output: Q
(Q: 79%, P: 116%)

----------
molecular target: β-secretase (BACE) (Homo sapiens)
pKi: −log10 of the molar value.
QUANTITY_NAME: pKi

// worked examples, pKi included
In [3]: df
Out[3]:
                                   molecule  quantity_name  observed_measurement
0  CCOC(=O)C1CCC(N(C)C(=O)CCC(C2CCCCC2)N2Cc3cc(Oc4ccccc4)ncc3N=C2N)CC1 (stereo not drawn)            pKi                  6.65
1  CN(C(=O)CC[C@@H](C1CCCCC1)N1Cc2cc(Oc3ccccc3)ncc2N=C1N)C1CCCCC1            pKi                  7.60
2  COC(=O)[C@H]1CC[C@H](N(C)C(=O)CC[C@@H](C2CCOCC2)N2Cc3cc(Oc4ccccc4)ncc3N=C2N)CC1            pKi                  7.49

[P] CC(C)[C@H](CO)NC(=O)CC[C@@H](C(C)C)N1Cc2cc(Oc3ccccc3)ncc2N=C1N [Compound 36]
[Q] CC(C)C(CCC(=O)N(CCO)C1CCC(C#N)CC1)N1Cc2cc(Oc3ccccc3)ncc2N=C1N (stereo not drawn)
[R] CC(C)C(CCC(=O)N(C)C1CCC(C#N)CC1)N1Cc2cc(Oc3ccccc3)ncc2N=C1N (stereo not drawn)
Task: Hi! Can you put these in order of pKi, lowest number first? Use the labels to give the requested order.
Output: Q, R, P
